# System: HCT-8 host cells (Hs18S)
# SETUP CONDITIONS: human, 41 h, 10 μM
Criterion: Hs18S ΔCT strictly under 0.06. Met: 1.0. Not met: 0.0.

Exam item: # TODO verify Hs18S ΔCT < 0.06 strictly for this compound: Nc1ncnc2c1ncn2[C@H]1C[C@H](O)[C@@H](CO)O1
Marked response: 1.0

Exam item: # TODO verify Hs18S ΔCT < 0.06 strictly for this compound: C[C@]1(OC(=O)/C=C/c2ccccc2)C[C@@H](O)[C@]2(O)C=CO[C@@H](O[C@@H]3O[C@H](CO)[C@@H](O)[C@H](O)[C@H]3O)[C@@H]21 [HARPAGOSIDE]
Marked response: 0.0

Exam item: # TODO verify Hs18S ΔCT < 0.06 strictly for this compound: C[C@H](CCC(=O)O)[C@H]1CC[C@H]2[C@@H]3[C@@H](O)C[C@@H]4C[C@H](O)CC[C@]4(C)[C@H]3CC[C@]12C
Marked response: 1.0

Exam item: # TODO verify Hs18S ΔCT < 0.06 strictly for this compound: O=c1cc(-c2ccccc2)oc2cc(O)cc(O)c12
Marked response: 0.0

Exam item: # TODO verify Hs18S ΔCT < 0.06 strictly for this compound: COC(=O)C[C@H]1C(C)(C)[C@@H](O)[C@@H]2CC3=C4C=C(OC)O[C@@H](c5ccoc5)[C@]4(C)CCC3[C@@]1(C)C2=O (some centres unmarked)
Marked response: 1.0

Exam item: # TODO verify Hs18S ΔCT < 0.06 strictly for this compound: C[C@H](CCC(=O)NCC(=O)O)[C@H]1CC[C@H]2[C@@H]3[C@H](O)C[C@@H]4C[C@H](O)CC[C@]4(C)[C@H]3C[C@H](O)[C@]12C
Marked response: 1.0

Exam item: # TODO verify Hs18S ΔCT < 0.06 strictly for this compound: CC1=CC(=O)C(C(C)C)=CC1=O
Marked response: 1.0
